B1: TPR t1 (parent)
chain: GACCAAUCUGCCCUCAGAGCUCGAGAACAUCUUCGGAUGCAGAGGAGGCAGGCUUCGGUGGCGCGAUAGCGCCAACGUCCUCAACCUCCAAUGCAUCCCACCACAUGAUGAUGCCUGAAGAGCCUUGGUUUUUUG

- Variants of: B1
- PROTOCOL_TEXT: polymerase ribozyme fitness, log enrichment relative to wild type (log ratio); higher = more active; in vitro selection for triplet polymerase activity
Short version: polymerase ribozyme fitness (log ratio) at least -1 is fulfilled, less is not fulfilled.

> print(dat)
                                  alteration    label.value
 1                                 G25U C56A  not fulfilled
 2                                C40G C101U  not fulfilled
 3                      U32C G52A G61A U125A      fulfilled
 4                              C8G U9C C56G      fulfilled
 5                  A2U C8A A41U C101U U130G  not fulfilled
 6                           A41G G51U C114G  not fulfilled
 7                                  C8A C72U      fulfilled
 8                                 C86U A90U  not fulfilled
 9                                  C8U G61A      fulfilled
10            G25A G47A C72G C76U U87G C114G  not fulfilled
11                           C15U G61C U125A  not fulfilled
12  C34G C79A A91C C97U C99U A100C C101U G113C U130A  not fulfilled
13                            C73U U96C C99U  not fulfilled
14                     C79A A95G C101U C123U  not fulfilled
15                                U32C C124G      fulfilled
16                                 G19C C88U  not fulfilled
17                      A29U C40A G52C G110U  not fulfilled
18                          C89A A121U U125G      fulfilled
19                             U9C A37U A66C  not fulfilled
20                         C115U A119U U130G  not fulfilled
21                         C3U U7A A37C C98U  not fulfilled
22                                 A46U C56A  not fulfilled
23                                  U9G C82G      fulfilled
